# EXPERIMENTAL_SYSTEM: Delta-type opioid receptor (Homo sapiens, UniProt P41143)
# Sequence (P41143 whole entry): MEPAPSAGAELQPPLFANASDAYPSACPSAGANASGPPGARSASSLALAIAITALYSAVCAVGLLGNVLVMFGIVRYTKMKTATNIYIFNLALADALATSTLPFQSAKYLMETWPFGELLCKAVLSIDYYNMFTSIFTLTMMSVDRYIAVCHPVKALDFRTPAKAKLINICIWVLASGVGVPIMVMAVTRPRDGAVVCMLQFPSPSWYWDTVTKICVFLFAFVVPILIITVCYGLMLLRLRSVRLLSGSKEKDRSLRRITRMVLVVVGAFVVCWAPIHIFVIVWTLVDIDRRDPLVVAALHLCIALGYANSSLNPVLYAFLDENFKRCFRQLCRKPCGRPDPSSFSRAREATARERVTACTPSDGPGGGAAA
# ASSAY_REMARKS: Displacement of [3H]diprenorphine from human cloned delta opioid receptor expressed in CHO cells
pKi: −log10 of the molar value.

[
  {
    "MOL": "C[C@H]1CN2CCN(Cc3cccc(Cl)c3)C[C@H]2C[C@@]1(C)c1cccc(O)c1",
    "pKi": 6.44
  },
  {
    "MOL": "C[C@H]1CN2CCN(Cc3ccccn3)C[C@H]2C[C@@]1(C)c1cccc(O)c1",
    "pKi": 5.96
  },
  {
    "MOL": "C[C@H]1CN2CCN(Cc3cccc(O)c3)C[C@H]2C[C@@]1(C)c1cccc(O)c1",
    "pKi": 6.51
  },
  {
    "MOL": "C[C@H]1CN2CCN(Cc3ccccc3O)C[C@H]2C[C@@]1(C)c1cccc(O)c1",
    "pKi": 6.52
  },
  {
    "MOL": "C[C@H]1CN2C[C@H](c3ccccc3)NC[C@H]2C[C@@]1(C)c1cccc(C(N)=O)c1",
    "pKi": 7.22
  },
  {
    "MOL": "C[C@H]1CN2CCN(Cc3ccccc3Cl)C[C@H]2C[C@@]1(C)c1cccc(O)c1",
    "pKi": 7.24
  },
  {
    "MOL": "C[C@H]1CN2CCN(Cc3ccsc3)C[C@H]2C[C@@]1(C)c1cccc(O)c1",
    "pKi": 6.47
  },
  {
    "MOL": "C[C@H]1CN2C[C@H](c3ccccc3)N(C)C[C@H]2C[C@@]1(C)c1cccc(O)c1",
    "pKi": 5.64
  },
  {
    "MOL": "C[C@H]1CN2CCN(Cc3cccnc3)C[C@H]2C[C@@]1(C)c1cccc(O)c1",
    "pKi": 6.08
  }
]

FYI, the data here is from ChEMBL document CHEMBL1137297.
